# test.target: CaRvs167-3
# method: SPOT peptide array binding signal intensity (averaged, normalized) (arbitrary units (background-subtracted, floor 0; scale differs between SH3 domains)); higher = stronger binding of the SH3 domain to the peptide
Categorize each record by its SPOT peptide array binding signal intensity using lowest: < 4; middle: ≥ 4 and < 100; highest: ≥ 100

Here are 6 binders together with their reported answers.
{"binder": "ISPPASPPPEFDFSK", "class": "lowest"}
{"binder": "GLRRARYKFPGQQKI", "class": "highest"}
{"binder": "VGFRLALKFPSRITG", "class": "highest"}
{"binder": "HGKRRAPLLLAKLDV", "class": "middle"}
{"binder": "AATTSTPPLPRRRAT", "class": "lowest"}
{"binder": "NMLKKKPLKKPLKRF", "class": "middle"}

// bin(item) where item = `QPWTDQFEKLEKEVS`
lowest

// bin(item) where item = `FYHRPAPKPPVTKKV`
lowest

// bin(item) where item = `NQARKPFLLPATELS`
middle

// bin(item) where item = `DGNEEKPLLPTRPNK`
middle

// bin(item) where item = `VPVAPPPPPASLGQS`
lowest

// bin(item) where item = `NFLRLLIGLPSQNEL`
highest

// bin(item) where item = `ALKQKKIPPPFKPHL`
middle

// bin(item) where item = `ISRRRLPVIMHRLKM`
highest

// bin(item) where item = `GAGERPRLVPRPINV`
lowest
